# growth annotations
System: HCT-15 colon
Test: NCI-60 one-dose screen, 48 h (100 = growth as untreated, 0 = no growth, -100 = all killed)
Settings: 10 µM
This is part of a sample that, as a whole, favours compounds with a hit. Of some 83,000 tested, about 20% had one in any assay.
Please respond with the number in % and leave the unit unwritten.

> print(dat)
                                   compound  observable  observed
1  COc1ccc(OC)c(/C=C/C(=O)c2nc3ccccc3n2Cc2ccc(F)cc2)c1      growth     -61.8
2  CCOP(=O)(OCC)C(NC(C)=O)C(=O)SCCN (centres undefined)      growth       102
3  CC1=C(CCC=NNC(N)=O)C2=C(C)C3(CC3)[C@@](C)(O)C(=O)C2=C1      growth     -49.2

Please examine the following record next.
## Task Give growth only, for CC[C@]12C=CCN3CC[C@@]4(c5ccc(OC)cc5N(C)[C@H]4[C@@](O)(C(=O)OC)[C@@H]1OC(=O)CCC[P+](C1CCCCC1)(C1CCCCC1)C1CCCCC1)[C@@H]32 , using HCT-15 colon data.
## Result 76.6
